From: patent US20250034171A1

MEASUREMENT_DESCRIPTION: Metabolic stability in liver microsomes (intrinsic clearance)
Type: in vitro ADME
EXPERIMENTAL_CONDITIONS: human, microsomes, pH 7.4, human liver microsomes; read-out: Metabolic Stability (liver microsome intrinsic clearance) Clearance (human, μl/min./mg protein)
Collected microsomal CLint at 1 µM values appear next to each entry.
READOUT_NAME: microsomal CLint at 1 µM (µL/min/mg)

| COMPOUND | READOUT_NAME | QUALIFYING_SIGN | TEST_VALUE |
| --- | --- | --- | --- |
| CCc1cnc2nc(CC)c(C(=O)NCc3ccc(-c4nc5n(n4)CC[C@@H](C(F)(F)F)C5)cc3)n2c1 [Compound 59] | microsomal CLint at 1 µM | = | 347 |
| CCc1nc2ncc(C)cn2c1C(=O)NCc1ccc(-c2nc3n(n2)CCC(O)C3)cc1 (stereo not shown) [Compound 29ab] | microsomal CLint at 1 µM | < | 7.7 |
| CCc1nc2ncc(C)cn2c1C(=O)NCc1ccc(-c2cc3n(n2)CCCC3)cc1 [Compound 95] | microsomal CLint at 1 µM | < | 1.2 |
| CCc1nc2ncc(C)cn2c1C(=O)NCc1ccc(-c2nc3n(n2)CCC(C(F)(F)F)C3)cc1 (single isomer, unassigned) [Compound 1a] | microsomal CLint at 1 µM | < | 7.7 |
| CCc1cnc2nc(CC)c(C(=O)NCc3ccc(-c4cn5c(n4)C[C@H](C(F)(F)F)CC5)cc3)n2c1 [Compound 151] | microsomal CLint at 1 µM | = | 326 |
| CCc1cnc2nc(CC)c(C(=O)NCc3ccc(-c4nc5n(n4)CC[C@H](C(F)(F)F)C5)cc3)n2c1 [Compound 62] | microsomal CLint at 1 µM | = | 294 |
| CCc1cnc2nc(CC)c(C(=O)NCc3ccc(-c4cn5c(n4)C[C@@H](C(F)(F)F)CC5)cc3)n2c1 [Compound 152] | microsomal CLint at 1 µM | > | 347 |

====

Collected half-life at 1 µM values appear next to each entry.
MEASUREMENT_DESCRIPTION: Metabolic stability in liver microsomes (intrinsic clearance)
Type: in vitro ADME
EXPERIMENTAL_CONDITIONS: mouse, microsomes, pH 7.4, Metabolic Stability Half life (mouse, min.)
READOUT_NAME: half-life at 1 µM (h)

| MOLECULE | READOUT_NAME | QUALIFYING_SIGN | TEST_VALUE |
| --- | --- | --- | --- |
| O=C(NCc1ccc(-c2nc3n(n2)CC[C@H](C(F)(F)F)C3)cc1)c1c(C(F)F)nc2n1CCCC2 | half-life at 1 µM | = | 1.34 |
| CCc1nc2ncc(C)cn2c1C(=O)NCc1ccc(-c2cc3n(n2)CCCC3)cc1 | half-life at 1 µM | = | 0.978 |
| CCc1nc2ncc(C)cn2c1C(=O)NCc1ccc(-c2cc3n(n2)CCC(C(F)(F)F)C3)cc1 (stereo not shown) [Compound 20ab] | half-life at 1 µM | = | 1.08 |
| CCc1nc2ncccn2c1C(=O)NCc1ccc(-c2nc3n(n2)CC[C@@H](C2CC2)C3)cc1 | half-life at 1 µM | = | 2.28 |
| CCc1nc2ncc(OC)cn2c1C(=O)NCc1ccc(-c2nc3n(n2)CC[C@H](C(F)(F)F)C3)cc1 | half-life at 1 µM | = | 1.8 |
| CCc1nc2nc(C)ccn2c1C(=O)NCc1ccc(-c2cn3c(n2)CC(C(F)(F)F)CC3)cc1 (stereo not shown) [Compound 34ab] | half-life at 1 µM | > | 3 |
| CCc1nc2ncccn2c1C(=O)NCc1ccc(-c2cc3n(n2)CCC(C(F)(F)F)C3)cc1 (stereo not shown) | half-life at 1 µM | = | 2.35 |
